Kindly state % Cell Viability for each of the entries shown.
- System: human Hep G2 cells (ATCC HB-8065)
- measurement.description: Cytotoxicity in Hep G2 cells (CellTiter-Glo)
- Type: cell-based
- recorded.conditions: Hep G2 cells, 100 μM test article, 24-hour exposure
A number alone suffices; assume %.

Please give the measured % Cell Viability for this compound: "Cc1ccc(N2CCN(C)CC2)cc1C(=O)N[C@H](C)c1cccc(-c2cccc(C(=O)NC[C@@H](O)CO)c2)c1"
103.1

I have this compound here, COc1cc(-c2cn(C)nc2C)cc([C@@H](C)NC(=O)c2cc(N3CCN4CCCC4C3)ccc2C)c1 (stereo partly shown) , and I need its recorded % Cell Viability.
70.1

Any idea what % Cell Viability was measured for "Cc1ccc(N2CCN(C)CC2)cc1C(=O)N[C@H](C)c1cccc(-c2cncnc2)c1" ?
86.0

Looking for the measured % Cell Viability of "CNCCN(C)C(=O)c1ccc(-c2cccc([C@@H](C)NC(=O)c3cc(N4CCN(C)CC4)ccc3C)c2)cc1" , can you help?
123.6
